Tested on: P. falciparum transmission to An. gambiae
Assay: Standard membrane feeding assay (SMFA), transmission-blocking activity by feeding
Type: in vivo
Conditions: Anopheles gambiae, 168 h, read-out: EC50, concentration that inhibits 50% of infection intensity (number of oocysts per mosquito)
metric name: pEC50
Here pEC50 is given on a logarithmic scale as minus log10 of the concentration in mol/L.

Q: Look up pEC50 for this compound: Cc1cc(N)cc2oc(=O)c3c(O)cc(O)cc3c12 [pulixin]
Ans: 4.96
